Provide the reported pKd of each item.
Molecular target: T1, EsCas13d, nuclease-dead (Eubacterium siraeum, UniProt B0MS50, R295A;H300A;R849A;H854A)
T1 sequence: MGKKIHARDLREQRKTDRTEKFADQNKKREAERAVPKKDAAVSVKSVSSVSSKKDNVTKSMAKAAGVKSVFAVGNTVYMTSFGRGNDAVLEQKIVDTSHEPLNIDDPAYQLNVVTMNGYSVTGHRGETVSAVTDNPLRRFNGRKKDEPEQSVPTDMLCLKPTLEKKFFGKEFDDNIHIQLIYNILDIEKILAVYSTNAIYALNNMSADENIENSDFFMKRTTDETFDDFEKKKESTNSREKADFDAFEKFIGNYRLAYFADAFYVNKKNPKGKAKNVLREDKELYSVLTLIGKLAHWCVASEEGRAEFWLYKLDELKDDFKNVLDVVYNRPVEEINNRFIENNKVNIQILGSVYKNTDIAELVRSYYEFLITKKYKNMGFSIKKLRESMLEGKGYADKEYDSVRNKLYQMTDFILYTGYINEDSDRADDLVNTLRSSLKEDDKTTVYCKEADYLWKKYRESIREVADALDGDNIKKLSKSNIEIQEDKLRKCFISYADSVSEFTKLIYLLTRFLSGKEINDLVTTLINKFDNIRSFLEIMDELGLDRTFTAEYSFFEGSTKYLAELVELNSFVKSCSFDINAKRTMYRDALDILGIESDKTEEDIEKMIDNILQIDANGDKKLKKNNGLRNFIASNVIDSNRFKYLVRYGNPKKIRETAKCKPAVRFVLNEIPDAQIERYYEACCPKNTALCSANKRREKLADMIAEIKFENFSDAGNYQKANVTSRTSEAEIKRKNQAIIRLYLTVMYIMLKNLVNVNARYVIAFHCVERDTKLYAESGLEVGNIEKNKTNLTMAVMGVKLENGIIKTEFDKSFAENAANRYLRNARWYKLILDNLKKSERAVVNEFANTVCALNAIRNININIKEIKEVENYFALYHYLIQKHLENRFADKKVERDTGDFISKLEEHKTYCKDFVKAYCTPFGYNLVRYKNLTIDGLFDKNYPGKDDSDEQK
Assay: crRNA (strand 1, pre-loaded); Mg2+; 40 mM Tris-HCl pH 7.5, 150 mM NaCl, 6 mM MgCl2, 1 mM DTT, 0.1% Tween-20, 0.2 mg/ml BSA; 25 C; 10 min per concentration, then washed
Details: tags: His6-TwinStrep-SUMO cleaved; N-terminal SNAP kept (SNAP-Surface 488); label: 3' end held by stalled T7 RNA polymerase
When answering, recall that pKd equals minus log10 of the concentration in mol/L, and write that number alone.

Quick check: pKd of target 2 MT 5'PFS UCG 3'PFS UAA (mixed) RNA 1: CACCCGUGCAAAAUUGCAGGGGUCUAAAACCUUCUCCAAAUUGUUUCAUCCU RNA 2: GGGAAUGGAUCCACAUCUACGAAUUCUCGAGGAUGAAACAAUUUGGAGAAGUAAAGAUCGGAAGAGCACACGU ?
7.82

Please do the same for target 1 MT 5'PFS GUG 3'PFS CGA (mixed) RNA 1: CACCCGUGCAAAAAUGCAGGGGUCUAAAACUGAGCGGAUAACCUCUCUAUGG RNA 2: GGGAAUGGAUCCACAUCUACGAAUUCGUGCCAUAGAGAGGUUAUCCGCUCACGAAGAUCGGAAGAGCACACGU as well.
7.64

target 1 del20 (mixed) RNA 1: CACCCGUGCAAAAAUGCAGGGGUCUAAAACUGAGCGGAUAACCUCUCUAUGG RNA 2: GGGAAUGGAUCCACAUCUACGAAUUCGUACCUAGAGAGGUUAUCCGCUCACCGAGAUCGGAAGAGCACACGU , same question.
7.51

Repeat with target 1 insA 3' of 13,insA 3' of 4 (mixed) RNA 1: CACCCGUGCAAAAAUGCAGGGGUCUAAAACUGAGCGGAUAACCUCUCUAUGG RNA 2: GGGAAUGGAUCCACAUCUACGAAUUCGUACCAUAGAGAGAGUUAUCCGCAUCACCGAGAUCGGAAGAGCACACGU
8.47
